# target-or-system: T1, human GIP receptor (human) (UniProt P48546)
# T1 sequence (looked up): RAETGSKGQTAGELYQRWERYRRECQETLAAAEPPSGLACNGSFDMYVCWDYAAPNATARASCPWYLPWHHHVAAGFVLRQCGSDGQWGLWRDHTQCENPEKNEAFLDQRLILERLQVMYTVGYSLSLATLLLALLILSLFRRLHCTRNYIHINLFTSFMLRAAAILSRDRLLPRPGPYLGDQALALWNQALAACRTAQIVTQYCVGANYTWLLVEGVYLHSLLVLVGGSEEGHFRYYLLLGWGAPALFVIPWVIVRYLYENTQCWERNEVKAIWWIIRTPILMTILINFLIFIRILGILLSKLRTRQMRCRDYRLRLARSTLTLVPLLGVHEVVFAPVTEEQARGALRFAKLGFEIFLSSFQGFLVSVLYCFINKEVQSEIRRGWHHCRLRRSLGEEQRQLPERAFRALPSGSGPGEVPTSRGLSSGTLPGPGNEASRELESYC
# assay-comment: cell-based or functional assay
Please enter t where cAMP Rel EC50, nM (1% HSA) is greater than or equal to 20 nM, and f where it is lower.

>>> class_label("YXQGTFTSDXSQXLDXKAQXAFIEYLIAGGPSSGAPPPSGSEE (Aib, 4Pal, Me4Pal, Orn, alpha-methyl-Leu, lipidated Lys, amide; synthetic construct; SITE 2: note = 2-Aminoisobutyric Acid; SITE 10: note = 3-(4-Pyridyl)-L-alanine; SITE 13: note = alpha-methyl-leucine; SITE 16: note = L-ornithine; SITE 17: note = Lysine is chemically modified through conjugation of the epsilon-amino group of the Lysine side chain with (Glu)2-(g)) [Example 1033]")
"t"
>>> class_label("YXQGTXTSDYSILLDKKAQXAFIEYLEEGGPSSGAPPPE (synthetic construct; SITE 2: note = 2-Aminoisobutyric Acid; SITE 6: note = alpha-methyl-2-fluoro-L-phenylalanine; SITE 17: note = Lysine is chemically modified through conjugation of the epsilon-amino group of the Lysine side chain with (2-[2-(2-Amino-ethoxy)-ethoxy]-acetyl)-(gamma-Glu)-CO-(CH2) 16-) [Example 408]")
"f"
>>> class_label("YXQGTFTSDYSRXLDKKAQXAFIEYLLEGGESSGAPPPSGS (synthetic construct; SITE 2: note = 2-Aminoisobutyric Acid; SITE 13: note = alpha-methyl-leucine; SITE 17: note = Lysine is chemically modified through conjugation of the epsilon-amino group of the Lysine side chain with (2-[2-(2-Amino-ethoxy)-ethoxy]-acetyl)-(gamma-Glu)-CO-(CH2) 16-CO2H; SITE 20: n) [Example 361]")
"t"
>>> class_label("YXQGTFTSDFSXXLDKKAQXAFIEYLLEGGPSSGAPXPGGS (acylated; synthetic construct; SITE 2: note = 2-Aminoisobutyric Acid; SITE 12: note = L-ornithine; SITE 13: note = alpha-methyl-leucine; SITE 17: note = Lysine is chemically modified through conjugation of the epsilon-amino group of the Lysine side chain with (2-[2-(2-Amino-ethoxy)-ethoxy]-acetyl)-(gamma-Glu)) [Example 236]")
"t"
>>> class_label("YXQGTFTSDXSQXLDXKAQXAFIEXLIEGGPSSGAPPPSGSEE (Aib, 4Pal, Orn, Me4Pal, αMeY; acylated lysine; amide; synthetic construct; SITE 2: note = 2-Aminoisobutyric Acid; SITE 10: note = 3-(4-Pyridyl)-L-alanine; SITE 13: note = alpha-methyl-leucine; SITE 16: note = L-ornithine; SITE 17: note = Lysine is chemically modified through conjugation of the epsilon-amino group of the Lysine side chain with (2-[2-(2-) [Example 1041]")
"t"
